Target: UDP-3-O-acyl-N-acetylglucosamine deacetylase (Pseudomonas aeruginosa (strain ATCC 15692 / PAO1 / 1C / PRS 101 / LMG12228))
Sequence (P47205 whole entry): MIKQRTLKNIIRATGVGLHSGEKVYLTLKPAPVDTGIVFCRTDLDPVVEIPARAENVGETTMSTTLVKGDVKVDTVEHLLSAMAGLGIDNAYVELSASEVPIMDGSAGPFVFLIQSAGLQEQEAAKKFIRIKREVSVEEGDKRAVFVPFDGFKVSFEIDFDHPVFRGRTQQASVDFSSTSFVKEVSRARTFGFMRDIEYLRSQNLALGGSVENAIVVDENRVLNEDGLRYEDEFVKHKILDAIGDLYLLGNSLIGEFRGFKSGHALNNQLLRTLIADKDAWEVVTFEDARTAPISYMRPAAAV
Assay: Inhibition of Pseudomonas aeruginosa LpxC
pIC50: −log10 of the molar value.
REPORTED METRIC: pIC50

Here are 6 molecules together with their reported answers.
INSERT INTO results (molecule, reported_metric, assay_value) VALUES
  ('CC(CO)(NC(=O)c1ccc(-c2ccccc2)cc1)C(=O)NO (racemic)', 'pIC50', 6.54),
  ('Cn1ccnc1[C@H](O)[C@](C)(OCc1ccc(-c2ccccc2)cc1)C(=O)NO', 'pIC50', 7.60),
  ('C[C@@](OCc1ccc(-c2ccccc2)cc1)(C(=O)NO)[C@@H](O)c1ccccc1', 'pIC50', 7.29),
  ('CC(CO)(COc1ccc(-c2ccccc2)cc1)C(=O)NO (stereo unspecified)', 'pIC50', 6.41),
  ('C[C@@](OCc1ccc(-c2ccccc2)cc1)(C(=O)NO)[C@@H](O)c1cc(CO)on1', 'pIC50', 9.22),
  ('C[C@](OCc1ccc(-c2ccccc2)cc1)(C(=O)NO)[C@@H](O)c1ccccn1', 'pIC50', 7.82);

I = CCc1ccc(-c2ccc(C(=O)N[C@H](C(=O)NO)[C@@H](C)O)cc2)cc1
II = C[C@@](OCc1ccc(-c2ccccc2)cc1)(C(=O)NO)[C@@H](O)c1c[nH]cn1
III = C[C@@](OCc1ccc(-c2ccccc2)cc1)(C(=O)NO)[C@@H](O)c1ccon1
IV = CCCC[C@H](O)[C@](C)(OCc1ccc(-c2ccccc2)cc1)C(=O)NO
Incoming: Sort the 4 molecules by pIC50; largest first, smallest last. Would you mind listing the labels in the order asked for?
Outgoing: III, II, I, IV
